Ref: paper PMC9021956

- Target Or System: HLA-A3001 (Homo sapiens, UniProt P04439, D140H/D185E/E176W/F33S/G80R/H175R/K168Q/R138E/R41S)
- Construct: expressed in transfected cells; host or cells: HMy2.CIR
- Experiment: Peptide competitive binding assay, transfected HMy2.CIR cells, reference ASRELK(FITC)VSY
- Condition Parameters: HLA-A3001 HMy2.CIR cells; competitor peptide 5μM; 24 hours; flow cytometry
Residues, ends and D or L forms follow the SMILES beside them.

Molecule: CC(C)C[C@H](NC(=O)[C@H](CCC(=O)O)NC(=O)[C@H](CCCNC(=N)N)NC(=O)[C@H](CO)NC(=O)[C@H](C)N)C(=O)N[C@H](C(=O)N[C@H](C(=O)N[C@@H](CO)C(=O)N[C@@H](Cc1ccc(O)cc1)C(=O)O)C(C)C)C(C)C [Epitope P88] (H-ASRELVVSY-OH; N-terminus and C-terminus assumed)
Unit Tag: %
inhibition at 5 µM: 69
//
Molecule: CC(C)C[C@H](NC(=O)[C@@H](NC(=O)[C@H](Cc1ccccc1)NC(=O)[C@@H](NC(=O)[C@H](CCCCN)NC(=O)[C@H](CC(C)C)NC(=O)[C@@H](N)CCCNC(=N)N)C(C)C)C(C)C)C(=O)NCC(=O)NCC(=O)O [Epitope P93] (H-RLKVFVLGG-OH; N-terminus and C-terminus assumed)
Unit Tag: %
inhibition at 5 µM: 15.8
//
Molecule: CC(C)C[C@H](NC(=O)[C@H](Cc1ccc(O)cc1)NC(=O)[C@H](CCC(=O)O)NC(=O)[C@H](CC(C)C)NC(=O)[C@@H](NC(=O)[C@@H](NC(=O)[C@@H](N)CCC(=O)O)[C@@H](C)O)C(C)C)C(=O)N[C@H](C(=O)N[C@@H](CO)C(=O)N[C@H](C(=O)O)C(C)C)C(C)C [Epitope P118] (H-ETVLEYLVSV-OH; N-terminus and C-terminus assumed)
Unit Tag: %
inhibition at 5 µM: 24
